Read-out: Vascular cell adhesion molecule 1 (VCAM1), VCAM1 (gene 7412)
test.summary: BSK_hDFCGF_VCAM1: BioMAP Diversity Plus: hDFCGF Assay for Vascular cell adhesion molecule 1 (VCAM1) Biomarker Activity (AID 2283065)
condition.label: primary human foreskin fibroblasts; actives raise or lower the signal
Activity calls are given as the source filed them. How the source made its calls: active means hit-call score of the fitted dose curve at least 0.9, where 1 is the maximum; inactive means score below 0.9.
A correct response names exactly one class from Yes for active, No for inactive

# count of solved cases: 5
>  <compound>
COP(=O)(OC)OC=C(Cl)Cl

>  <assigned.label>
No

$$$$
>  <compound>
CCOCN(C(=O)CCl)c1c(C)cccc1CC

>  <assigned.label>
Yes

$$$$
>  <compound>
CCCN(CCC)c1c([N+](=O)[O-])cc(C(F)(F)F)cc1[N+](=O)[O-]

>  <assigned.label>
Yes

$$$$
>  <compound>
CC(C)(C)C(O)/C(=C\c1ccc(Cl)cc1Cl)n1cncn1 (stereo not given)

>  <assigned.label>
Yes

$$$$
>  <compound>
CCN(CC)C(=O)SCc1ccc(Cl)cc1

>  <assigned.label>
No

$$$$

Req: Please indicate how the test categorized O=C(O)COc1ccc(Cl)cc1Cl .
Resp: No

Req: Outcome logged for CC[C@H](C)[C@H]1O[C@]2(C=C[C@@H]1C)C[C@@H]1C[C@@H](C/C=C(\C)[C@@H](O[C@H]3C[C@H](OC)[C@@H](O[C@H]4C[C@H](OC)[C@@H](O)[C@H](C)O4)[C@H](C)O3)[C@@H](C)/C=C/C=C3\CO[C@@H]4[C@H](O)C(C)=C[C@@H](C(=O)O1)[C@]34O)O2 (tested in a mixture with another compound) in this assay:
Resp: Yes

Req: Name the outcome recorded for C#CCN1C(=O)COc2cc(F)c(N3C(=O)C4=C(CCCC4)C3=O)cc21 in the assay.
Resp: No

---

Read-out: Urokinase-type plasminogen activator receptor (uPAR), PLAUR (gene 5329)
test.summary: BSK_BE3C_uPAR: BioMAP Diversity Plus: BE3C Assay for Urokinase-type plasminogen activator receptor (uPAR) Biomarker Activity (AID 2283039)
condition.label: primary human bronchial epithelial cells; actives raise or lower the signal
Calls of active or inactive are those of the source. Rule for the calls: active = hit-call score of the fitted dose curve at least 0.9, where 1 is the maximum; inactive = score below 0.9.
Choose the fitting class; nothing outside active, inactive is accepted.

Please review the following examples before continuing.
>  <compound>
CNC(=O)Oc1cccc(N=CN(C)C)c1

>  <assigned.label>
inactive

$$$$
>  <compound>
CCC(C)(C)C(=O)OC1=C(c2ccc(Cl)cc2Cl)C(=O)OC12CCCCC2

>  <assigned.label>
active

$$$$
>  <compound>
COP(=S)(OC)Oc1ccc([N+](=O)[O-])cc1

>  <assigned.label>
inactive

$$$$
>  <compound>
CC(C)(C)C(O)/C(=C\c1ccc(Cl)cc1Cl)n1cncn1 (centres undefined)

>  <assigned.label>
active

$$$$
>  <compound>
OCCOc1ccccc1

>  <assigned.label>
inactive

$$$$
>  <compound>
C#CCN1C(=O)COc2cc(F)c(N3C(=O)C4=C(CCCC4)C3=O)cc21

>  <assigned.label>
inactive

$$$$

Req: Per the assay record, what outcome was assigned to CCC(C)Nc1c([N+](=O)[O-])cc(C(C)(C)C)cc1[N+](=O)[O-] (centres undefined) ?
Resp: inactive

Req: Would you mind telling me which call this test gave CCCN(CCC)c1c([N+](=O)[O-])cc(C(F)(F)F)cc1[N+](=O)[O-] ?
Resp: inactive

Req: I'd appreciate the recorded outcome for [2H]C1([2H])[n+]2ccccc2-c2cccc[n+]2C1([2H])[2H] from this test.
Resp: active

Req: Given Oc1cc(Cl)ccc1Oc1ccc(Cl)cc1Cl , state the outcome it received in this test.
Resp: active

Req: Tell me the recorded outcome of this test for O=C1c2ccccc2C(=O)N1SC(Cl)(Cl)Cl .
Resp: active

Req: Check the results log: what was the call for CNC(=O)/C=C(\C)OP(=O)(OC)OC ?
Resp: inactive

Req: Any idea what this test logged for CNC(=O)CSP(=S)(OC)OC ?
Resp: inactive

Req: # lookup: test call for COC(=O)c1ccccc1S(=O)(=O)NC(=O)N(C)c1nc(C)nc(OC)n1
Resp: inactive

---

Read-out: CYP3A5 (gene 1577)
test.summary: LTEA_HepaRG_CYP3A5: Life Technologies and Expression Analysis (LTEA) Assay for CYP3A5 using HepaRG (AID 2283493)
condition.label: mRNA level, 48 h; actives raise or lower the signal
Procedure: LTEA_HepaRG is a cell based, multiplexed-readout assay that uses HepaRG, a human liver cell line, with measurements taken at 48 hours after chemical dosing on a 96-well plate.LTEA_HepaRG_CYP3A5 is one of 102 assay component(s) measured in the LTEA HepaRG cell culture assay. It is a marker of NR mediated metabolism.Data from the assay component LTEA_HepaRG_CYP3A5 was analyzed into 1 endpoint. […]
Calls of active or inactive are those of the source. The calls were made as follows: active = hit-call score of the fitted dose curve at least 0.9, where 1 is the maximum; inactive = score below 0.9.
Write down one outcome, taken from active, inactive

Worked examples, 2 compounds total:
>  <compound>
CCC(C)(NC(=O)c1cc(Cl)c(C)c(Cl)c1)C(=O)CCl (stereo unspecified)

>  <assigned.label>
active

$$$$
>  <compound>
CCCN(CCC)c1c([N+](=O)[O-])cc(C(F)(F)F)cc1[N+](=O)[O-]

>  <assigned.label>
inactive

$$$$

Moving on to the next compound.
Req: Field: outcome | Entry: Cc1[nH]c(=O)n(C(C)(C)C)c(=O)c1Cl
Resp: inactive

---

test.summary: ATG_DR4_LXR_CIS: Attagene CIS-FACTORIAL HepG2 Assay for human Liver X Receptor (LXR), DR4 submotif (AID 2282929)
condition.label: HepG2 Attagene DR4 cis-reporter, mRNA transcription; actives raise or lower the signal
Active and inactive are the calls of the source. The calls were made as follows: active = hit-call score of the fitted dose curve at least 0.9, where 1 is the maximum; inactive = score below 0.9.
Entry note: the call must match one of active, inactive

>  <molecule>
O=S1OCC2C(CO1)C1(Cl)C(Cl)=C(Cl)C2(Cl)C1(Cl)Cl (stereo not given)

>  <assigned.label>
inactive

$$$$
>  <molecule>
CCCN(CCOc1c(Cl)cc(Cl)cc1Cl)C(=O)n1ccnc1

>  <assigned.label>
inactive

$$$$
>  <molecule>
O=C(NC(=O)c1c(F)cccc1F)Nc1ccc(OC(F)(F)C(F)OC(F)(F)F)c(Cl)c1 (stereo not given)

>  <assigned.label>
inactive

$$$$
>  <molecule>
Cc1cc(C)nc(NC(=O)NS(=O)(=O)c2ccccc2C(=O)OC2COC2)n1

>  <assigned.label>
inactive

$$$$
>  <molecule>
CNC(=O)CSP(=S)(OC)OC

>  <assigned.label>
inactive

$$$$
>  <molecule>
CCC(C)(C)C(=O)OC1=C(c2ccc(Cl)cc2Cl)C(=O)OC12CCCCC2

>  <assigned.label>
inactive

$$$$
>  <molecule>
O=C(Nc1ccccc1)Nc1cnns1

>  <assigned.label>
active

$$$$
>  <molecule>
COC(=O)c1ccccc1S(=O)(=O)NC(=O)Nc1nc(C)nc(OC)n1

>  <assigned.label>
inactive

$$$$

Req: Which outcome was entered for the molecule CC(C)(C)C(O)C(Oc1ccc(Cl)cc1)n1cncn1 (stereo not given) in this test?
Resp: inactive

Req: So what was the verdict on O=[N+]([O-])/N=C1\NCCN1Cc1ccc(Cl)nc1 in this test?
Resp: inactive

Req: Give the logged outcome of this assay for the following molecule: CC1(c2ccc(Oc3ccccc3)cc2)OC(=O)N(Nc2ccccc2)C1=O (stereo not given)
Resp: inactive

Req: In this assay, the call recorded for C[C@H]1[C@H](c2ccc(Cl)cc2)SC(=O)N1C(=O)NC1CCCCC1 was what?
Resp: active

Req: Please let me know the test result on file for CC[C@H](C)[C@H]1O[C@]2(C=C[C@@H]1C)C[C@@H]1C[C@@H](C/C=C(\C)[C@@H](O[C@H]3C[C@H](OC)[C@@H](O[C@H]4C[C@H](OC)[C@@H](O)[C@H](C)O4)[C@H](C)O3)[C@@H](C)/C=C/C=C3\CO[C@@H]4[C@H](O)C(C)=C[C@@H](C(=O)O1)[C@]34O)O2 (tested in a mixture with another compound) .
Resp: active

Req: Assay result, entry CCOC1Oc2ccc(OS(C)(=O)=O)cc2C1(C)C (stereo not given) — outcome?
Resp: inactive

Req: I'd appreciate the recorded outcome for CCCN(CCC)c1c([N+](=O)[O-])cc(C(F)(F)F)cc1[N+](=O)[O-] from this test.
Resp: active

Req: Returns: the outcome recorded for CC1(C)C(C=C(Cl)Cl)C1C(=O)OC(C#N)c1ccc(F)c(Oc2ccccc2)c1 (stereo not given) in this assay.
Resp: active

Req: # lookup: test call for CCC(C)(NC(=O)c1cc(Cl)c(C)c(Cl)c1)C(=O)CCl (stereo not given)
Resp: inactive

Req: In this assay, the call recorded for COc1nn(CSP(=S)(OC)OC)c(=O)s1 was what?
Resp: inactive

Req: I'd appreciate the recorded outcome for N#Cc1c(Cl)c(Cl)c(Cl)c(C#N)c1Cl from this test.
Resp: inactive

Req: Dear colleague, could you share the recorded outcome for CNC(=O)/C=C(\C)OP(=O)(OC)OC when you have a moment?
Resp: inactive
